Species: Bos taurus
Assay: Displacement of [3H]Ro15-1788 from GABA(A) receptor benzodiazepine site in bovine brain membrane at 10 uM
Type: cell membranes
Label rule met when inhibition >= 30%; otherwise rule not met.

• CCOC(=O)c1cnn2c1n[n+]([O-])c1cc(C(F)(F)F)ccc12 = rule not met
• [O-][n+]1nc2c(F)cnn2c2cc(Cl)ccc21 = rule met
• O=C(OCc1cccs1)c1cnn2c1n[n+]([O-])c1cc(C(F)(F)F)ccc12 = rule met
• [O-][n+]1nc2c(F)cnn2c2cc(OCc3ccccc3OC(F)(F)F)ccc21 = rule not met
• [O-][n+]1nc2c(Br)cnn2c2ccc(C(F)(F)F)cc21 = rule met
• COc1ccccc1COC(=O)c1cnn2c1n[n+]([O-])c1cc(C(F)(F)F)ccc12 = rule met

----------
Assay: Displacement of [3H]Ro15-1788 from GABA(A) receptor benzodiazepine site in bovine brain membrane
Format: cell membranes, Bos taurus
pKi: −log10 of the molar value.
Label criterion met when pKi >= 7; otherwise criterion not met.

- O=C(OCc1cccs1)c1cnn2c1nnc1ccc(OC(F)F)cc12: criterion met
- CCOC(=O)c1cnn2c1nnc1ccc(OC(F)F)cc12: criterion met
- [O-][n+]1nc2c(I)cnn2c2cc(OC(F)F)ccc21: criterion met
- [O-][n+]1nc2c(-c3ccsc3)cnn2c2cc(C(F)(F)F)ccc21: criterion not met
- O=C(OCc1cccs1)c1cnn2c1n[n+]([O-])c1ccc(C(F)(F)F)cc12: criterion met
- FC(F)Oc1ccc2nnc3c(I)cnn3c2c1: criterion met
- CCOC(=O)c1cnn2c1n[n+]([O-])c1ccc(C(F)(F)F)cc12: criterion not met
- [O-][n+]1nc2c(I)cnn2c2cc(C(F)(F)F)ccc21: criterion met
- CCOC(=O)c1cnn2c1n[n+]([O-])c1ccc(OC(F)F)cc12: criterion met
- C#CCOc1ccc2c(c1)n1ncc(F)c1n[n+]2[O-]: criterion not met
- COc1ccccc1COc1ccc2c(c1)n1ncc(F)c1n[n+]2[O-]: criterion met
- [O-][n+]1nc2c(Cl)cnn2c2cc(C(F)(F)F)ccc21: criterion not met
- CN1C(=O)CN=C(c2ccccc2)c2cc(Cl)ccc21: criterion met
- COc1ccccc1COC(=O)c1cnn2c1n[n+]([O-])c1ccc(C(F)(F)F)cc12: criterion met
- [O-][n+]1nc2c(F)cnn2c2cc(OCc3ccncc3)ccc21: criterion not met
- COc1ccccc1C(=O)c1cnn2c1n[n+]([O-])c1ccc(C(F)(F)F)cc12: criterion not met
- [O-][n+]1nc2c(-c3cccs3)cnn2c2cc(C(F)(F)F)ccc21: criterion met

----------
Test: Displacement of [3H]Ro15-1788 from GABA(A) receptor benzodiazepine site in bovine brain membrane
Assay type: cell membranes, Bos taurus
pKi: −log10 of the molar value.
Consider the following molecules and their measured pKi readings.
measure: pKi

- [O-][n+]1nc2c(-c3ccoc3)cnn2c2cc(C(F)(F)F)ccc21: 6.95
- [O-][n+]1nc2c(F)cnn2c2cc(OCc3cccs3)ccc21: 7.03
- [O-][n+]1nc2c(F)cnn2c2cc(OCc3ccco3)ccc21: 6.89
- O=C(c1cccs1)c1cnn2c1n[n+]([O-])c1ccc(C(F)(F)F)cc12: 6.79
- [O-][n+]1nc2c(Br)cnn2c2cc(C(F)(F)F)ccc21: 6.86
